These measurements were taken from paper PMC12207370.

Overview of reported Counts Seq I across a group of sequences:
- tested on: biotinylated CD59 (Homo sapiens)
- Construct: Recombinant soluble human CD59 with an additional C-terminal cysteine residue
- Sequence (P13987 26-102 limits assumed): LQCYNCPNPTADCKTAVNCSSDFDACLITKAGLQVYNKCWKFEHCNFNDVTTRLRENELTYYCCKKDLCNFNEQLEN
- measurement notes: mRNA-display cyclic peptide screen against CD59-biotin, NGS abundance after 6th selection round
- reported conditions: raw NGS counts of peptide sequence, sequencing sample Seq I, sheet R6 (6th selection round)

sequence string: QWNRWYGIDEL
Counts Seq I: 329

sequence string: CFSKRIAPGAQ
Counts Seq I: 88

sequence string: SWTWGNRNSVRG
Counts Seq I: 190

sequence string: CAWGNRHTAYY
Counts Seq I: 80

sequence string: CFTGRLSLDSI
Counts Seq I: 134

sequence string: FVRGGLYSVLG
Counts Seq I: 86

sequence string: CFSRRLTAGAT
Counts Seq I: 195

sequence string: CFSHRPGPSI
Counts Seq I: 642

sequence string: FVRGDLYSVFG
Counts Seq I: 102

sequence string: YAFGSRDITYY
Counts Seq I: 78

###

- tested on: biotinylated CD59 (Homo sapiens)
- Construct: Recombinant soluble human CD59 with an additional C-terminal cysteine residue
- Sequence (P13987 26-102 limits assumed): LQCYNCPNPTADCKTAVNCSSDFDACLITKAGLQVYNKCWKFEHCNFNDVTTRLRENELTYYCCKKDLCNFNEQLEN
- measurement notes: mRNA-display cyclic peptide screen against CD59-biotin, NGS abundance after 6th selection round
- reported conditions: raw NGS counts of peptide sequence, sequencing sample Seq I, sheet R6 (6th selection round)

substance: CLRLHREPGSL
Counts Seq I: 449
--
substance: HVFGNRSFTRG
Counts Seq I: 23292
--
substance: CFAGRLTTDAV
Counts Seq I: 193
--
substance: VSRGDSTYTLF
Counts Seq I: 137
--
substance: FVRGDPYSVLG
Counts Seq I: 251
--
substance: FVTGNRDRTRG
Counts Seq I: 81
--
substance: FIFGNRNWTFG
Counts Seq I: 94
--
substance: GYLNECHTLYTR
Counts Seq I: 2754
--
substance: SFAKRVAAQGGC
Counts Seq I: 133
--
substance: ASWLTAPCYV
Counts Seq I: 138
--
substance: SVGGSRSWTRG
Counts Seq I: 566
--
substance: CFAHRITDPNTQ
Counts Seq I: 117
--
substance: YIYWSFTSARG
Counts Seq I: 219
--
substance: GRLNECHVIWP
Counts Seq I: 1389
--
substance: CYGGRTFVYAWS
Counts Seq I: 450
--
substance: YVRGDAWTVLG
Counts Seq I: 117
--
substance: CFVNRLSDSLSL
Counts Seq I: 212
--
substance: IARGDRNHQFY
Counts Seq I: 1296
--
substance: WILGSRWWTQS
Counts Seq I: 4031
--
substance: VAHGSKNSQFW
Counts Seq I: 1526
--
substance: SWTWGDRSSVRG
Counts Seq I: 71
--
substance: SAWGNRQIQY+
Counts Seq I: 114
--
substance: SARGNRQIQYY
Counts Seq I: 114
--
substance: SSALERIGKCP
Counts Seq I: 991
--
substance: YARGNNASQFF
Counts Seq I: 391
--
substance: CYGGRTFTYAWS
Counts Seq I: 1056
--
substance: QWNRWYGMDER
Counts Seq I: 369
--
substance: TSYGSRVFAYF
Counts Seq I: 135
--
substance: VKYGNSNFVRE
Counts Seq I: 207
--
substance: WRDRLDQCVL
Counts Seq I: 85
--
substance: CFYQRTLGTTAS
Counts Seq I: 79
--
substance: SAWGNRRIQYY
Counts Seq I: 148
--
substance: CFAGRLTVDAV
Counts Seq I: 163
--
substance: CFARRLSASSGT
Counts Seq I: 106
--
substance: LLGTRDYVRLWH
Counts Seq I: 630
--
substance: CFSTRLSRSYGT
Counts Seq I: 68
--
substance: FVSGNSRFRRE
Counts Seq I: 270
--
substance: SAWGNRQIQYF
Counts Seq I: 102
--
substance: ISYGDRSYTYY
Counts Seq I: 463
--
substance: SAWGSRQIQYY
Counts Seq I: 257
--
substance: CYGGRTFIYVWS
Counts Seq I: 168
--
substance: VKYGNSNFVRG
Counts Seq I: 2889
--
substance: SAWGNRQIQYC
Counts Seq I: 170
--
substance: CFSYRIRSAYDL
Counts Seq I: 124
--
substance: HCWARGSRNYT
Counts Seq I: 180
--
substance: HVSGNRSFTRG
Counts Seq I: 104
--
substance: HCWVRGSRDYT
Counts Seq I: 122
--
substance: SSWAQLPCKR
Counts Seq I: 170
--
substance: QWNRWYGIDER
Counts Seq I: 94
--
substance: FIRGNSTSVLF
Counts Seq I: 7076
--
substance: CFANRLYGSDSR
Counts Seq I: 177
--
substance: CFAGRLTEGV
Counts Seq I: 155
--
substance: HVLGNRSFTRG
Counts Seq I: 312
--
substance: SISGGRDYTRG
Counts Seq I: 141
--
substance: CLDKWGRLWT
Counts Seq I: 182
--
substance: IARGDWNHQFY
Counts Seq I: 2249
--
substance: AVHGSSFYVWG
Counts Seq I: 164
--
substance: AKGNGHFAYG
Counts Seq I: 629
--
substance: FVRGDRYSVLG
Counts Seq I: 198
--
substance: FIRGNSTSVLFLRQRQRQLGRGAE
Counts Seq I: 264
--
substance: HCWVRGSRNYT
Counts Seq I: 11242
--
substance: FISGSRSWRKQ
Counts Seq I: 159
--
substance: VAHGSKKSQFW
Counts Seq I: 386
--
substance: ILGSRDTIKYW
Counts Seq I: 515
--
substance: CFSRRSTSSQST
Counts Seq I: 77
--
substance: WRDRFDQCVL
Counts Seq I: 10776
--
substance: FVTGDRDHTRG
Counts Seq I: 554
--
substance: CFQNRVTSDSAK
Counts Seq I: 702
--
substance: SSWAQLPCRS
Counts Seq I: 180
--
substance: CFSARTDSSGT
Counts Seq I: 231
--
substance: SKNGLTFLCS
Counts Seq I: 70
--
substance: CFSRRLTAGAI
Counts Seq I: 9078
--
substance: LYSHPRSLCSFS
Counts Seq I: 357
--
substance: WRDRFDQCVP
Counts Seq I: 167
--
substance: WILGSRWWTQT
Counts Seq I: 139
--
substance: CFSARAILDGGW
Counts Seq I: 1089
--
substance: CFAGRLTIDAV
Counts Seq I: 11574
--
substance: CFSRRLTAGAV
Counts Seq I: 134
--
substance: FVTGSRDHTRG
Counts Seq I: 322
--
substance: AVRGSSFYVWG
Counts Seq I: 427
--
substance: CFAGRPTIDAV
Counts Seq I: 80
--
substance: SKNGLTFLCN
Counts Seq I: 794
--
substance: STKNDYNNVPC
Counts Seq I: 54
